All values here come from PubChem BioAssay AID1030.

# Target Or System: Aldehyde dehydrogenase 1A1 (Homo sapiens) (UniProt P00352)
# Sequence (P00352 whole entry, looked up): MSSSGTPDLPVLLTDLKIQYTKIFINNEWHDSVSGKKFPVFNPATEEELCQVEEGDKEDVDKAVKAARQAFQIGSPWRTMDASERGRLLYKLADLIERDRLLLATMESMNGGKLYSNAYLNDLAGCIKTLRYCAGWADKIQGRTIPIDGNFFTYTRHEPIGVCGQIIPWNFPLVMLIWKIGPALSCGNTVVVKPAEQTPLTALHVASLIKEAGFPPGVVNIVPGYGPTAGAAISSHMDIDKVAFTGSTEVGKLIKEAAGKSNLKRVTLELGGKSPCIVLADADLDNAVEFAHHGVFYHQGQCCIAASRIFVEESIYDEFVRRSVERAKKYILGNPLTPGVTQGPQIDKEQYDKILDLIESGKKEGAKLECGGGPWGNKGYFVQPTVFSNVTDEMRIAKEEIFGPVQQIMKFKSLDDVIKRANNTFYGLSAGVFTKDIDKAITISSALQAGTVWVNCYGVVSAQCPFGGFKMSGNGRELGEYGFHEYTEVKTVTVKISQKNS
# Protocol Notes: qHTS Assay for Inhibitors of Aldehyde Dehydrogenase 1 (ALDH1A1)
# Conditions Used: Purified ALDH1A1, NADH fluorescence, propionaldehyde substrate; series mostly up to 75.3 µM
In all, about 220,000 compounds went through this assay and about 16,000 (7.3%) were called active. Roughly 25% stayed inconclusive and do not appear here. The call rests on the fitted dose curve; in most records, active means well fitted inhibition curve with a large enough effect (not every such curve was filed as active); inconclusive means small, poorly fitted or top-dose-only effect, or another doubt; inactive means no such curve, though single readings can be large or run the other way. This is one part of a sample in which actives are shown more often than they occur.
Response enum: true (active), false (inactive)

Answered examples (4):
Fc1ccc(OCc2nn3c(Cn4nnc5ccccc54)nnc3s2)cc1	true
Cc1onc(-c2ccccc2)c1C(=O)N=C(N)c1ccc(Cl)cc1	false
CCOC(=O)/C(=N\Nc1ccccc1Cl)N(C)C1CCS(=O)(=O)C1 (stereo unspecified)	false
O=C(O)c1cccc(NC(=O)c2cc(-c3cccc(Cl)c3)nc3ccccc23)c1	false

query: Please let me know the test result on file for OC(COc1ccc(CN2CCSCC2)cc1)CN1CCCCC1 (stereo unspecified) .
result: false

query: Please let me know the test result on file for Cc1ccc(Cl)cc1-c1ccc(/C=N/n2cnnc2)o1 .
result: false

query: Please let me know the test result on file for COc1ccc2c(c1)CCc1c(C(=O)Nc3c(C)n(C)n(-c4ccccc4)c3=O)noc1-2 .
result: false

----------
# Target Or System: Aldehyde dehydrogenase 1A1 (Homo sapiens) (UniProt P00352)
# Protocol Notes: qHTS Assay for Inhibitors of Aldehyde Dehydrogenase 1 (ALDH1A1)
# Conditions Used: Purified ALDH1A1, NADH fluorescence, propionaldehyde substrate; series mostly up to 75.3 µM
Hit rate of the full screen: of about 220,000 compounds, about 16,000 (7.3%) were called active. Another 25% or so got no clear call; they are omitted. Calls follow the shape of the dose curve; as a rule, active = well fitted inhibition curve with a large enough effect (not every such curve was filed as active); inconclusive = small, poorly fitted or top-dose-only effect, or another doubt; inactive = no such curve, though single readings can be large or run the other way. This excerpt belongs to a sample that is enriched for actives.
Response enum: 1 (active), -1 (inactive)

Answered examples (4):
COc1ccc(C(=O)NC(=S)NNC(=O)CCc2ccccc2)cc1	1
CCn1c(SCC(=O)NCc2ccco2)nnc1-c1ccc(N)cc1	-1
COc1ccc(C(=O)CSc2nc(C)cc(C)n2)cc1[N+](=O)[O-]	1
CN(C)C(CNC(=O)Cc1ccc([N+](=O)[O-])cc1)c1ccccc1 (stereo unspecified)	-1

query: Please let me know the test result on file for Cc1ccc(NC(=O)C(=O)NCc2ccco2)c(C)c1 .
result: -1

query: Please let me know the test result on file for COc1ccc(C(=O)NNC(=O)c2cnccn2)cc1[N+](=O)[O-] .
result: -1

query: Please let me know the test result on file for Cc1ccc(SCC(=O)NC(=O)NCc2ccco2)c(C)c1 .
result: 1

query: Please let me know the test result on file for O=C(CSc1nnc(-c2cccs2)n1-c1ccccc1)NCc1ccco1 .
result: -1

query: Please let me know the test result on file for COc1ccc(C(=O)NC(=S)NNC(=O)c2c(-c3ccccc3)noc2C)cc1 .
result: -1

query: Please let me know the test result on file for O=C(CSc1nnc(-c2ccco2)n1Cc1ccccc1)NC(=O)NCc1ccco1 .
result: 1

query: Please let me know the test result on file for CN(C)C(CNC(=O)c1ccc(S(=O)(=O)NCc2ccco2)cc1)c1ccccc1 (stereo unspecified) .
result: -1

----------
# Target Or System: Aldehyde dehydrogenase 1A1 (Homo sapiens) (UniProt P00352)
# Protocol Notes: qHTS Assay for Inhibitors of Aldehyde Dehydrogenase 1 (ALDH1A1); further: potency means the concentration at half of the fitted maximal effect
# Conditions Used: Purified ALDH1A1, NADH fluorescence, propionaldehyde substrate; series mostly up to 75.3 µM
Hit rate of the full screen: of about 220,000 compounds, about 16,000 (7.3%) were called active. Another 25% or so got no clear call; they are omitted. Many of the other results were omitted from the sample, so actives are more common in it than they were.
Readout Type: Potency

Study these solved cases before continuing.
CC(=O)N1CCN(S(=O)(=O)c2ccc(C)c([N+](=O)[O-])c2)C1C(C)C (stereo unspecified)	inactive
Cc1ccc(-n2c(C)cc(C(=O)CN3C(=O)C(=O)N(C4CCCC4)C3=O)c2C)cc1	inactive
COc1ccccc1-c1nc(SC)n[nH]1	inactive
Cc1ccc(-n2nc(C)c(/C=N/NC(=O)c3cccs3)c2Cl)cc1	inactive
Cc1cccc(C)c1NC(=O)N1CC=C(n2c(=O)[nH]c3ccccc32)CC1	6.31 µM (active)

query: Identify measured Potency corresponding to Cc1cc([N+](=O)[O-])ccc1NC(=O)c1ccc(NC(=O)C(C)C)cc1
result: inactive

query: Identify measured Potency corresponding to Cc1cc(=O)[nH]c(N/N=C/c2c(C)nn(-c3ccccc3Cl)c2Cl)n1
result: 5.01 µM (active)

query: Identify measured Potency corresponding to Cc1ccc(C(=O)N2CCCC(c3ccccc3)=N2)cc1
result: inactive

query: Identify measured Potency corresponding to COc1ccc([N+](=O)[O-])cc1NC(=O)CC1SC(=Nc2cccc(C)c2C)N(/N=C(\C)c2ccc(C)cc2)C1=O (stereo unspecified)
result: inactive

query: Identify measured Potency corresponding to CNc1ccc(SC#N)cc1
result: 8.91 µM (active)

query: Identify measured Potency corresponding to COC(=O)C(NS(=O)(=O)c1ccc(F)cc1)c1ccccc1 (stereo unspecified)
result: inactive

----------
# Target Or System: Aldehyde dehydrogenase 1A1 (Homo sapiens)
# Protocol Notes: qHTS Assay for Inhibitors of Aldehyde Dehydrogenase 1 (ALDH1A1)
# Conditions Used: Purified ALDH1A1, NADH fluorescence, propionaldehyde substrate; series mostly up to 75.3 µM
Hit rate of the full screen: of about 220,000 compounds, about 16,000 (7.3%) were called active. Not shown: some 25% with an inconclusive outcome. Calls come from the whole dose curve; as a rule, active = well fitted inhibition curve with a large enough effect (not every such curve was filed as active); inconclusive = small, poorly fitted or top-dose-only effect, or another doubt; inactive = no such curve, though single readings can be large or run the other way. The list comes from a sample in which actives are over-represented; it also holds close analogues and randomly drawn compounds.
Response enum: active, inactive

query: Please let me know the test result on file for O=C(c1cccs1)N(C(=O)c1cccs1)c1ccccn1 .
result: inactive

query: Please let me know the test result on file for CC1CCCCC1NC(=O)CO/N=C/c1ccc(OC(F)F)cc1 (stereo unspecified) .
result: inactive

query: Please let me know the test result on file for COc1ccc(C)cc1NC(=O)CCS(=O)(=O)c1cccc2nonc12 .
result: inactive

query: Please let me know the test result on file for CC1=C(C)C(=O)OC(C(C)C2CCC3C4CC=C5CC(OC6OC(COC7OC(CO)C(O)C(O)C7O)C(O)C(O)C6O)CC(O)C5(C)C4CCC23C)C1 (stereo unspecified) .
result: inactive

query: Please let me know the test result on file for CN(C)c1ccc(/C=C2\NC(=S)N(Cc3ccccc3)C2=O)cc1 .
result: active

query: Please let me know the test result on file for Cc1ccc(NC(=O)c2oc3ccccc3c2C)c([N+](=O)[O-])c1 .
result: inactive

----------
# Target Or System: Aldehyde dehydrogenase 1A1 (Homo sapiens) (UniProt P00352)
# Protocol Notes: qHTS Assay for Inhibitors of Aldehyde Dehydrogenase 1 (ALDH1A1)
# Conditions Used: Purified ALDH1A1, NADH fluorescence, propionaldehyde substrate; series mostly up to 75.3 µM
The whole screen tested about 220,000 compounds, of which about 16,000 (7.3%) were called active. Not shown: some 25% with an inconclusive outcome. Calls come from the whole dose curve; as a rule, active = well fitted inhibition curve with a large enough effect (not every such curve was filed as active); inconclusive = small, poorly fitted or top-dose-only effect, or another doubt; inactive = no such curve, though single readings can be large or run the other way. The full list was thinned out, with actives kept by preference.
Response enum: active, inactive

Answered examples (10):
Cc1cc(=O)oc2c1c(C)nn2-c1ccc(Cl)cc1	inactive
S=c1[nH]ccn1-c1ccc(Cl)cc1	inactive
O=C(Nc1ncc2c(n1)CC(c1ccco1)CC2=O)c1ccc(Cl)cc1 (stereo not drawn)	active
CN1CCN(/N=C/c2ccc(C#N)cc2)CC1	inactive
C/C(N)=C(/C#N)C(=O)COC(=O)CNS(=O)(=O)c1ccc(C)cc1	inactive
O=C(/C=C/c1cccc([N+](=O)[O-])c1)NCCSCc1ccco1	active
CC(C)(C)NC(=O)c1cc(NC(=O)c2ccco2)cc(NC(=O)c2ccco2)c1	inactive
COc1cc(OC)cc(C(=O)NCCSCc2ccco2)c1	inactive
NC(=O)c1ccsc1NC(=O)c1ccco1	active
CC(=O)Nc1ccc(S(=O)(=O)Nc2ccc(N3CCOCC3)c(F)c2)cc1	inactive

query: Please let me know the test result on file for CCCCSc1nc2ccccc2[nH]1 .
result: inactive

query: Please let me know the test result on file for COc1cccc2c1OCC1COc3c(c(=O)n(C)c(=O)n3C)C21 (stereo not drawn) .
result: inactive

query: Please let me know the test result on file for CC1CCCN(C(=O)Cn2c(=O)oc3ccccc32)C1 (stereo not drawn) .
result: inactive

query: Please let me know the test result on file for O=C(Nc1cccc(OCC(=O)N2CCOCC2)c1)C1CCCCC1 .
result: inactive

query: Please let me know the test result on file for CC1=C(C(=O)Nc2ccc(Cl)cc2)C(c2ccco2)NC(=O)N1 (stereo not drawn) .
result: inactive

query: Please let me know the test result on file for Cn1nnc2cc(C(=O)NCCC3=CCCCC3)ccc21 .
result: inactive

query: Please let me know the test result on file for COc1ccc(NS(=O)(=O)c2cc(NC(=O)C3CCCCC3)ccc2N2CCOCC2)cc1 .
result: active

query: Please let me know the test result on file for Cc1ccc(-c2csc(-c3cc(C)on3)n2)cc1 .
result: inactive

query: Please let me know the test result on file for Cn1c2c(c(=O)n(C)c1=O)[C@@H]1c3c(ccc4ccccc34)OC[C@@H]1CO2 .
result: inactive

query: Please let me know the test result on file for COc1cccc([C@@H]2Oc3ccc(Br)cc3C(=O)[C@H]2OC(=O)NCc2ccc3c(c2)OCO3)c1 .
result: inactive
